# credit: patent US20230136702A1

So I've got IC50 readings for HCMV DNA polymerase (UL54) (Human cytomegalovirus, UniProt P08546), take a look.

CC1(F)CN(C(=O)Cn2c(=O)c(C(=O)NCc3ccc(Cl)cc3)cc3nc(N4CCN(Cc5nnn[nH]5)C4=O)cnc32)C1    < 1000 nM

Below is a list of molecules. For each, state its recorded IC50.
1. CN1CCN(c2cnc3c(cc(C(=O)NCc4ccc(Cl)cc4)c(=O)n3CC(=O)N3CC(C)(F)C3)n2)C1=O
2. CN1C(=O)CN(c2cnc3c(cc(C(=O)NCc4ccc(Cl)cc4)c(=O)n3CC(=O)N3CC(C)(F)C3)n2)C1=O
3. CN(C)C(=O)CN1CCN(c2cnc3c(cc(C(=O)NCc4ccc(Cl)cc4)c(=O)n3CC(=O)N3CC(C)(F)C3)n2)C1=O
4. CC1(F)CN(C(=O)Cn2c(=O)c(C(=O)NCc3ccc(Cl)cc3)cc3nc(N4CCN(CCN5CCOCC5)C4=O)cnc32)C1

Result:
1: < 1000 nM; 2: < 1000 nM; 3: < 1000 nM; 4: > 1000 nM
